System: Cytochrome P450 3A4 (Homo sapiens, UniProt P08684)
Sequence (P08684 whole entry): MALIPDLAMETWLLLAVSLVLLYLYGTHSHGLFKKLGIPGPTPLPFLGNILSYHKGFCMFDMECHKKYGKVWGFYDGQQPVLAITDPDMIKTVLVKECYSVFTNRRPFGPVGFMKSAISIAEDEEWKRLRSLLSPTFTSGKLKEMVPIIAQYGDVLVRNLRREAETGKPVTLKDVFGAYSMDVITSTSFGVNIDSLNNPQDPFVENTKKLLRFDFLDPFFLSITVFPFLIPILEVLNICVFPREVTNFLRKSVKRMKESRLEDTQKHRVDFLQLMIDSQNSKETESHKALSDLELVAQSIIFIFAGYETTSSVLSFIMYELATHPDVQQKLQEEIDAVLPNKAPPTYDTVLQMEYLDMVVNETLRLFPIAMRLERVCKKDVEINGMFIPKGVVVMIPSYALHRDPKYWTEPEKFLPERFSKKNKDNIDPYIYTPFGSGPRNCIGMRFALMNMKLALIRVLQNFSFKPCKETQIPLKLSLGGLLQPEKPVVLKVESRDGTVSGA
Measured Property: IC50

Reported IC50 for `CC(C)C(=O)N1C[C@@H]2[C@H](CNc3nc(-c4ccccn4)cs3)[C@@H]2C1` : what is it?
≥ 7 µM

----------
// values below are reported clearance
Test: Blood clearance in rat at 0.5 mg/kg, iv and 1 mg/kg, po by cassette dosing
Type: ADME, organism-based
The response must be a number in L/h/kg with no trailing unit.

O=C(C1CCOC1)N1C[C@@H]2[C@H](CNc3nc(-c4ccccn4)cs3)[C@@H]2C1 (some centres not stated) :: 5.88

Reported clearance for `CC(C)C(=O)N1C[C@@H]2[C@H](CNc3nc(-c4ccccn4)cs3)[C@@H]2C1` : what is it?
8.22
